This collection of values is drawn from paper PMC7516004.

# system name: T1, TRAB1 (Oryza sativa, UniProt Q6ZDF3 1-374)
# T1 sequence: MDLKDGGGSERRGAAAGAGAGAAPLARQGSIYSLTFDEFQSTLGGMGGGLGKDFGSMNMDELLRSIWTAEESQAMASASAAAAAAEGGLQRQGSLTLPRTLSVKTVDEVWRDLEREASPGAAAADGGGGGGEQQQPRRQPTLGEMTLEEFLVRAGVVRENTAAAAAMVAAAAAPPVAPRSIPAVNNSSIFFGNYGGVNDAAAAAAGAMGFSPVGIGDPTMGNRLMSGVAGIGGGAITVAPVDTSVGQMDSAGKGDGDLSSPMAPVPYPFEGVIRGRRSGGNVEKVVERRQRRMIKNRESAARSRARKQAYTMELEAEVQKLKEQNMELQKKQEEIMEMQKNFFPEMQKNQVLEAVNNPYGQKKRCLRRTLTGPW
# assay text: EMSA; Chemiluminescent Nucleic Acid Detection Module Kit (Thermo) per manufacturer; binding buffer, salt, pH and temperature not stated
# condition parameters: protein: recombinant; tags: His (pCold vector); chain copies: 2; label: biotin
measured property: binding result

[[record]]
binder = "Probe 14 (dsDNA) DNA 1: AGGAAAAATGGTGGGACCCACGTGGGCCCCACATGTCATCCT DNA 2: AGGATGACATGTGGGGCCCACGTGGGTCCCACCATTTTTCCT"
endpoint_result = "no binding"

[[record]]
binder = "Probe 3 (dsDNA) DNA 1: GTCATTTTGAGGGGCTGACGTTTGGTGGACAGCGCAGTTT DNA 2: AAACTGCGCTGTCCACCAAACGTCAGCCCCTCAAAATGAC"
endpoint_result = "no binding"

[[record]]
binder = "Probe 8 (dsDNA) DNA 1: GATAAGATTGCTCAGCAACGTAATCTTCATAGATCCACTT DNA 2: AAGTGGATCTATGAAGATTACGTTGCTGAGCAATCTTATC"
endpoint_result = "no binding"

